Data credit: PubChem BioAssay

- experimentNotes: growth inhibitors of H69AR lung tumor, primary screen, human, duplicate replicates (AID 580);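 also: 100% = mean luminescence of untreated wells and 0% = no signal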
- testContext: H69AR lung tumor cells viability, ATP luminescence, 72 h; at 10 µM; stronger effect = lower value
Active and inactive are the calls of the source.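 The calls were made as follows: active = viability at or under a set limit in both replicates, limit being median viability minus 3 SD (cut at about 48% in these data, passing the limit was not always enough); inconclusive = at or under the limit in just one replicate; inactive = at or above the limit in both replicates.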
measuredMetric: viability

{"compound": "CCOC(=O)C1=C(C)NC(C)=C(C(=O)OC)C1c1cccc([N+](=O)[O-])c1 (configuration not stated)", "measuredMetric": "viability", "reading": "83% (inactive)"}
{"compound": "CNC(=O)CSc1nc2c(c(=O)n(C)c(=O)n2C)n1Cc1ccc(C)cc1", "measuredMetric": "viability", "reading": "96.2% (inactive)"}
{"compound": "CCCCOC(=O)Cn1c(=N)n(CCN2CCOCC2)c2ccccc21", "measuredMetric": "viability", "reading": "95.5% (inactive)"}

Challenge: Give a short answer stating reported viability for Cc1ccc(S(=O)(=O)N2CCCN(S(=O)(=O)C3CCS(=O)(=O)C3)CC2)cc1 (configuration not stated) .
Response given: 99.1% (inactive)

Challenge: Give a short answer stating reported viability for O=C(COC(=O)c1cnccn1)c1ccc(OC(=O)c2ccccc2)cc1 .
Response given: 96.2% (inactive)

Challenge: Give a short answer stating reported viability for CN(C)C(=O)CN(C)S(=O)(=O)c1ccc(Cl)cc1 .
Response given: 97.9% (inactive)

Challenge: Give a short answer stating reported viability for c1ccc2c(NC3CCCC3)nnc(NC3CCCC3)c2c1 .
Response given: 91.4% (inactive)

Challenge: Give a short answer stating reported viability for N#CC1=C(N)C(C#N)(C#N)[C@H](c2ccsc2)[C@H]2COCC=C12 .
Response given: 97.4% (inactive)

###

# viability annotations
- experimentNotes: reversal of MRP1-mediated doxorubicin resistance, pilot screen, H69AR cells, doxorubicin co-treatment (AID 601)
- testContext: H69AR cells, CellTiter-Glo, 72 h; compound alone cytotoxicity; at 10 µM

{"molecule": "COc1ccc(-c2nc(C(N)=O)c3[nH]c(=O)n(-c4cccc(Cl)c4)c3n2)cc1OC", "measuredMetric": "viability", "reading": "1.2%"}
{"molecule": "CC(N)C12CC3CC(C1)CC(C(C)N)(C3)C2 (stereo unspecified)", "measuredMetric": "viability", "reading": "101%"}
{"molecule": "COc1ccc(-c2noc(CCC(=O)Nc3nc4ccccc4s3)n2)cc1", "measuredMetric": "viability", "reading": "88.1%"}
{"molecule": "O=C(NCCCN1CCN(c2cccc(Cl)c2)CC1)c1ccc(N2CCCC2=O)cc1", "measuredMetric": "viability", "reading": "89.1%"}
{"molecule": "Cc1ccc(S(=O)(=O)CCC(=O)Nc2ccc3c(c2)OCO3)cc1", "measuredMetric": "viability", "reading": "81.3%"}
{"molecule": "CS(=O)(=O)NCc1nnc(SCC(=O)NC2CCCCC2)n1-c1ccc(F)cc1", "measuredMetric": "viability", "reading": "97.6%"}
{"molecule": "Cc1ccc(N(CC(O)CN2CCCC2)S(=O)(=O)c2ccc(C)cc2)cc1 (stereo unspecified)", "measuredMetric": "viability", "reading": "86.9%"}
{"molecule": "Cc1nc(-c2ccccc2)sc1C(N)=O", "measuredMetric": "viability", "reading": "94.4%"}

Challenge: Give a short answer stating reported viability for COc1ccccc1-c1c(C)nn2c(C)c(C(C)=O)cnc12 .
Response given: 94.3%

Challenge: Give a short answer stating reported viability for Cc1ccc(NC(=O)c2ccccc2F)nc1 .
Response given: 90.9%

Challenge: Give a short answer stating reported viability for COc1ccc(N2CCN(CCNS(=O)(=O)c3cccc4nsnc34)CC2)cc1 .
Response given: 91.1%
